# Tested on: Rattus norvegicus
# EXPERIMENT_NOTES: Tested for the tissue distribution of Br activity at 45 min in liver following intravenous injection in rat at the dose of 0.2 mg/kg
# Assay type: ADME, organism-based
# Set-up: dose 0.2 mg/kg, route intravenous
# EXPERIMENTAL_CONDITIONS: in vivo, 0.75 h
ASSAY_ENDPOINT: Dose/g (%)
Enter your answer as a number in %; do not include the unit.

Form field, Dose/g with Rattus norvegicus, item "O=C(CCCN1CCC(O)(c2ccc(Br)cc2)CC1)c1ccc(F)cc1" : 1.7
